Source: patent US20030068675

# study_target: ZFP SBS#911 (synthetic)
# Sequence (chain, as listed by the source): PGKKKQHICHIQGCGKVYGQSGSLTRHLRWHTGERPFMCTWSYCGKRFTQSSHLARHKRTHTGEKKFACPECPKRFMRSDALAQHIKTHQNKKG
# assay_comment: EMSA
# measurement_conditions: tags: MBP fusion
measured_attribute: Kd

> print(dat)
                                     binder  measured.attribute  endpoint.result
1  ATGGGTGCA (dsDNA) DNA 1: ATGGGTGCA DNA 2: TGCACCCAT                  Kd          0.91 nM
